The measured values listed here are drawn from patent US11453711B2.

assay: Pharmacokinetic measurement in mouse, single sc dose 30 nmol/kg, plasma ELISA; conditions: single sc dose 30 nmol/kg
Catalogue of Tmax values
Give your result as the value with the unit written after it.

Examples with answers:
Molecule | Tmax
MLC093: fusion polypeptide SEQ ID NO: 381 conjugated with Moiety B at 33C of Linker (conjugate, Moiety B conjugated at linker Cys33) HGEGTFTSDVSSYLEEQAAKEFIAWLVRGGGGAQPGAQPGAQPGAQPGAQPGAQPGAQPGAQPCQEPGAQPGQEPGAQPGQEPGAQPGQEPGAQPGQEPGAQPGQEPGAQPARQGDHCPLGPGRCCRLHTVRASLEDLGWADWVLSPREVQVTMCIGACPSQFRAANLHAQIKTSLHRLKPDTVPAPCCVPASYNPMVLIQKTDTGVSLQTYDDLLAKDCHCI | 16.0 h
MLC075: fusion polypeptide SEQ ID NO: 369 conjugated with Moiety C at 41C of Linker (conjugate, Moiety C conjugated at linker C41) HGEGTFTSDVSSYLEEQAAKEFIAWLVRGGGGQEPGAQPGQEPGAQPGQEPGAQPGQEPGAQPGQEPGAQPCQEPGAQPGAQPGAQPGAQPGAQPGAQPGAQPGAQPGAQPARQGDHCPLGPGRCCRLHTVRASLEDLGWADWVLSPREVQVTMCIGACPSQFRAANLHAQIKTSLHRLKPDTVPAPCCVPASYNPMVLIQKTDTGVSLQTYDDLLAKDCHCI | 13.3 h
MLC002: fusion polypeptide SEQ ID NO: 249 conjugated with Moiety A at 26K of GLP-1 (conjugate, Moiety A conjugated at K26) HGEGTFTSDVSSYLEEQAAKEFIAWLVRGGGGQEPGQEPGQEPGQEPGQEPGQEPGQEPGQEPGAQPGAQPARQGDHCPLGPGRCCRLHTVRASLEDLGWADWVLSPREVQVTMCIGACPSQFRAANLHAQIKTSLHRLRPDTVPAPCCVPASYNPMVLIQRTDTGVSLQTYDDLLARDCHCI | 1.2 h

# context switch: different molecule, same Tmax
[Q] // query Tmax value for entry MLC004: fusion polypeptide SEQ ID NO: 251 conjugated with Moiety A at 26K of GLP-1 (conjugate, Moiety A conjugated at K26) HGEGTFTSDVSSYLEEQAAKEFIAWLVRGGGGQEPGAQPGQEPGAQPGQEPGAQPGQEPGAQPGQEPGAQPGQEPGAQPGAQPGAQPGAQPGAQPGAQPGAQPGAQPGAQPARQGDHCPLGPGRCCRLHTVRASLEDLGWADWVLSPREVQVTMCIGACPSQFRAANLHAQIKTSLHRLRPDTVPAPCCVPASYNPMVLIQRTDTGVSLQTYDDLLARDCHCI
[A] 3.3 h
